- experimental.system: CYP11A1 (Homo sapiens)
- Construct: human H295R adrenocortical carcinoma cell line was used as source of enzyme; endogenous in cells
- Sequence (P05108 40-521): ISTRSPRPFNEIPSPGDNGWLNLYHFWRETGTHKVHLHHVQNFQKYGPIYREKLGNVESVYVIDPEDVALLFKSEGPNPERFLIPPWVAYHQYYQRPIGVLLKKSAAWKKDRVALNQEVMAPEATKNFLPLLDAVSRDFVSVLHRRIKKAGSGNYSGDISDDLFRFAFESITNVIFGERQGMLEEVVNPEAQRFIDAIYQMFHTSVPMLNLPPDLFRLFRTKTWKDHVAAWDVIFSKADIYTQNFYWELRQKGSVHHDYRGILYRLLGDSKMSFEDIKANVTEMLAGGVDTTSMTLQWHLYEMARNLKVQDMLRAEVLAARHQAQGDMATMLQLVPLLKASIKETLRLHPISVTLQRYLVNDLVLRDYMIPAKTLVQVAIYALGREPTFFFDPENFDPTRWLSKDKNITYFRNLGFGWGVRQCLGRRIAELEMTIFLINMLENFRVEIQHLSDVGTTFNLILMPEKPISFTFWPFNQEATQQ
- experiment.summary: CYP11A1 inhibition: modified isocaproic acid release assay (IARA) in H295R cells
- protocol.conditions: human H295R adrenocortical carcinoma cells treated three days, 3 nM [24,25-3H]-labelled cholesterol, 1% DMSO, 10 concentrations in duplicates; read-out: IC50 of the test compounds on CYP11A1 inhibition
reported.endpoint: IC50

compound	meas.value
CN(CCC#N)S(=O)(=O)c1ccc(COc2coc(CN3Cc4ccccc4C3)cc2=O)cc1	< 150 nM
CC(C)(C)OC(=O)N1CCC[C@H](COc2coc(CN3Cc4ccccc4C3)cc2=O)C1	301 to 2000 nM
CS(=O)(=O)N1CCC(COc2coc(CN3Cc4ccccc4C3)cc2=O)=C(F)C1	< 150 nM
CS(C)(=O)=NC(=O)c1ccc(COc2coc(CN3Cc4ccc(F)cc4C3)cc2=O)cc1	< 150 nM
Cc1ccc(S(=O)(=O)N2CCN(C(=O)COc3coc(CN4Cc5ccccc5C4)cc3=O)CC2)cc1	301 to 2000 nM
O=C(C1CC1)N1CCC(COc2coc(CN3Cc4ccccc4C3)cc2=O)CC1	< 150 nM
Cc1ccc(S(=O)(=O)N=S2(=O)CCC(COc3coc(CN4Cc5ccccc5C4)cc3=O)CC2)cc1 (stereo not shown)	150 to 300 nM
CS(=O)(=O)N1C=CC(COc2coc(CN3Cc4ccc(C(F)(F)F)cc4C3)cc2=O)CC1 (stereo not shown)	150 to 300 nM
CC(C)(C)NC(=O)c1ccc(COc2coc(CN3Cc4ccccc4C3)cc2=O)cc1	< 150 nM
O=c1cc(CN2Cc3ccccc3C2)occ1OCC1CCN(S(=O)(=O)CC(F)(F)F)CC1	301 to 2000 nM
CS(=O)(=O)c1ccc(COc2coc(CN3Cc4ccccc4C3)cc2=O)c(F)c1	150 to 300 nM
O=C(N1CCC1)N1CCC(COc2coc(CN3Cc4ccccc4C3)cc2=O)CC1	150 to 300 nM
C[S@@](=N)(=O)c1ccc(COc2coc(CN3Cc4ccc(C(F)(F)F)cc4C3)cc2=O)cc1	< 150 nM
CC(C)(C)NC(=O)N1CCC(COc2coc(CN3Cc4ccccc4C3)cc2=O)CC1	150 to 300 nM
O=c1cc(CN2Cc3ccccc3C2)occ1OCc1ccc(S(=O)(=O)C(F)F)cc1	< 150 nM
CS(=O)(=O)N1CCC(COc2coc(CN3Cc4ccccc4C3)cc2=O)CC1	< 150 nM
